Test system: HOP-62 NSCLC
assay summary: NCI-60 one-dose screen, 48 h (100 = growth as untreated, 0 = no growth, -100 = all killed)
condition summary: 10 µM unless noted
This is part of a sample that, as a whole, favours compounds with a hit. Of some 83,000 tested, about 20% had one in any assay. The source made the active and inactive calls. The calls were made as follows: active = growth percent below 10; inactive = the rest.
Below, each entry is listed alongside its reported growth.

[
  {
    "compound": "O=C1NC(=O)C2(CCCC2C(=O)O)N1 (stereo not given)",
    "growth": "111% (inactive)"
  },
  {
    "compound": "Cc1ccccc1-n1nnc(C(=O)Nc2nc(-c3ccccc3)c(-c3ccccc3)s2)c1C",
    "growth": "84.8% [50 µM] (inactive)"
  },
  {
    "compound": "COc1cccc2c(=O)c3c(sc12)c(NCCN(C)C)nc1ccccc13",
    "growth": "27.2% (inactive)"
  },
  {
    "compound": "CN1CCN(c2ccc3nc(-c4ccc5nc(-c6ccc(C(F)(F)F)cc6)[nH]c5c4)[nH]c3c2)CC1",
    "growth": "51.3% (inactive)"
  },
  {
    "compound": "Cc1nc2cc(Nc3nc(N4CCOCC4)nc(N4CCN(C)CC4)n3)ccc2n1Cc1ccccc1",
    "growth": "95% (inactive)"
  },
  {
    "compound": "COc1cc(CNCCN2C(=O)c3ccc4c5c(ccc(c35)C2=O)C(=O)N(CCNCc2cc(OC)c(OC)c(OC)c2)C4=O)cc(OC)c1OC",
    "growth": "-78% (active)"
  },
  {
    "compound": "O=C1C(Br)=C(c2ccccc2)C(=O)C(Br)=C1c1ccccc1",
    "growth": "111% (inactive)"
  },
  {
    "compound": "CCCCCCCC/C=C\\CCCCCCCCOc1cccc(CC(=O)NCC[N+]2(C)CCCC2)c1",
    "growth": "69.5% (inactive)"
  },
  {
    "compound": "CS(=O)(=O)Nc1cccc(C(=O)NCc2ccc(N3CCOCC3)cc2)c1",
    "growth": "107% (inactive)"
  },
  {
    "compound": "COc1ccc(/C=N\\N2CCOCC2)cc1OC1CCCC1",
    "growth": "97% (inactive)"
  },
  {
    "compound": "COc1cc(/C=C/C(=O)C(=Cc2ccc(F)c(F)c2)C(=O)/C=C/c2ccc(O)c(OC)c2)ccc1O",
    "growth": "22.1% (inactive)"
  },
  {
    "compound": "Cc1nc2cc(Nc3nc(N4CCCCC4)nc(N4CCOCC4)n3)ccc2n1Cc1ccccc1",
    "growth": "44.5% (inactive)"
  },
  {
    "compound": "COc1cccc(Nc2nc(NCCO)c3ccccc3n2)c1",
    "growth": "93.1% (inactive)"
  },
  {
    "compound": "COc1cc(/C=C2\\C(=O)N(c3c(Cl)cccc3Cl)c3ccccc32)cc(OC)c1O",
    "growth": "48.6% (inactive)"
  },
  {
    "compound": "CSc1nnc(-c2sc3nnc(-c4ccccc4)c(-c4ccccc4)c3c2O)o1",
    "growth": "71.1% (inactive)"
  },
  {
    "compound": "COc1cc(/C=C/C(=O)CC(=O)/C=C/c2cc(Br)c(OC)c(OC)c2)cc(Br)c1OC",
    "growth": "93.1% (inactive)"
  },
  {
    "compound": "CN1CCN(C)c2cncc(Br)c2C1=O",
    "growth": "110% (inactive)"
  },
  {
    "compound": "CCN(CC)CCCNc1ccc(C)c2sc3ccccc3c(=O)c12",
    "growth": "40.9% (inactive)"
  },
  {
    "compound": "COc1ccc(-c2[nH]ncc2Nc2cc(OC)c(OC)c(OC)c2)cc1",
    "growth": "51.7% (inactive)"
  },
  {
    "compound": "CC1(C)N=C(N)N=C(N)N1c1cccc(/C=C/C=C/c2cccc([N+](=O)[O-])c2)c1",
    "growth": "104% (inactive)"
  },
  {
    "compound": "CCC(=O)Nc1nnc(Cc2ccc(OC)c(OC)c2)s1",
    "growth": "-67.2% (active)"
  },
  {
    "compound": "Cc1cc(=O)[nH]n1-c1cc(Cl)ccc1N",
    "growth": "103% (inactive)"
  },
  {
    "compound": "COc1ccc(-c2cc(=O)oc3c4c(ccc23)OCN(Cc2ccc(F)cc2)C4)cc1",
    "growth": "80% (inactive)"
  },
  {
    "compound": "O=C1NC(=S)S/C1=C\\c1cccc([N+](=O)[O-])c1",
    "growth": "114% (inactive)"
  },
  {
    "compound": "COc1ccc(OC2=CC(=O)c3ccc(C)nc3C2=O)cc1",
    "growth": "89.1% (inactive)"
  },
  {
    "compound": "C=CC(=O)N1CC2(CC(n3nc(-c4ccc(Oc5ccccc5)cc4)c4c(N)ncnc43)C2)C1",
    "growth": "35.7% (inactive)"
  },
  {
    "compound": "COc1ccc(-n2c(SCc3cc(OC)c(OC)c(OC)c3)nc3ccc(C)cc3c2=O)c(OC)c1",
    "growth": "47.4% (inactive)"
  },
  {
    "compound": "O=[N+]([O-])c1cc2c(cc1Br)C1C(C3C2C(Cl)(Cl)C(Cl)=C(Cl)C3(Cl)Cl)C(Cl)(Cl)C(Cl)=C(Cl)C1(Cl)Cl (stereo not given)",
    "growth": "92.2% (inactive)"
  },
  {
    "compound": "Cc1ccc(S(=O)(=O)N2CCc3ccc(O)c4c3C2CCc2ccccc2-4)cc1 (stereo not given)",
    "growth": "106% (inactive)"
  },
  {
    "compound": "O=C(Nc1ccccc1)Oc1cccc2cccnc12",
    "growth": "99.6% (inactive)"
  }
]

---

System: OVCAR-3 ovarian
assay summary: NCI-60 one-dose screen, 48 h (100 = growth as untreated, 0 = no growth, -100 = all killed)
condition summary: 10 µM unless noted
About 83,000 compounds went through this panel and 20% of them were active in at least one assay; those are over-represented in the sample as a whole. Activity calls are given as the source filed them. The calls were made as follows: active = growth percent below 10; inactive = the rest.
metric: growth

[
  {
    "compound": "CC1=C(C/C=C(\\C)CCC[C@H](C)CCC[C@H](C)CCCC(C)C)C(=O)c2ccccc2C1=O",
    "result": "119% (inactive)"
  },
  {
    "compound": "COc1cc(/C=C/c2cc(/C=C/c3ccc(O)c(OC)c3)n(-c3ccccc3)n2)ccc1O",
    "result": "-46.9% (active)"
  },
  {
    "compound": "Oc1ccccc1/C=N/Nc1nc2ccccc2s1",
    "result": "13.8% (inactive)"
  },
  {
    "compound": "O=S(=O)(Nc1ccc(Cl)c(Cl)c1)c1ccc(-c2cnc(C3CC3)o2)cc1",
    "result": "-17.8% (active)"
  },
  {
    "compound": "O=C(COc1cccc(/C=C2\\COc3ccccc3C2=O)c1)c1ccccc1",
    "result": "80.3% (inactive)"
  },
  {
    "compound": "Cc1ccccc1-n1nnc(C(=O)Nc2nc(-c3ccccc3)c(-c3ccccc3)s2)c1C",
    "result": "79.8% [50 µM] (inactive)"
  },
  {
    "compound": "CC(C)(C)[Si](C)(C)OC1[C@@H](COC(N)=O)O[C@@H](n2cnc3c(N)ncnc32)[C@H]1O[Si](C)(C)C(C)(C)C (some centres not stated)",
    "result": "75.6% (inactive)"
  }
]

---

Below, each entry is listed alongside its reported growth.
Tested on: SF-268 CNS
assay summary: NCI-60 one-dose screen, 48 h (100 = growth as untreated, 0 = no growth, -100 = all killed)
condition summary: 10 µM unless noted
About 83,000 compounds went through this panel and 20% of them were active in at least one assay; those are over-represented in the sample as a whole.

[
  {
    "smiles notation": "C[C@@H](Oc1cc(-c2cnn(C3CC4(CNC4)C3)c2)cnc1N)c1c(Cl)ccc(F)c1Cl",
    "growth (%)": 39.6
  },
  {
    "smiles notation": "CN1CCC(OC2c3ccccc3CCc3ccccc32)CC1",
    "growth (%)": 89.5
  },
  {
    "smiles notation": "C[C@H]1C(=O)C23CCC1C[C@@]21O[C@@H]2C(C)(C)C=CC(=O)C23COC1=O",
    "growth (%)": 104
  }
]

---

Tested on: TK-10 renal
assay summary: NCI-60 one-dose screen, 48 h (100 = growth as untreated, 0 = no growth, -100 = all killed)
condition summary: 10 µM unless noted
Compounds without any hit were thinned out: in the full panel of roughly 83,000, 20% have a hit.
Below, each entry is listed alongside its reported growth.

[
  {
    "compound": "COc1ccccc1CNCCCCCCCCCCCCN1C(=O)c2ccc3c4c(ccc(c24)C1=O)C(=O)N(CCCCCCCCCCCCNCc1ccccc1OC)C3=O",
    "growth (%)": -46.7
  },
  {
    "compound": "c1ccc2c(c1)oc1cc3c(cc12)nnc1cccn13",
    "growth (%)": 122
  },
  {
    "compound": "CCOC(=O)c1[nH]c2cc(Cl)ccc2c1[C@@H](C(=O)NC(C)(C)C)N(CC)C(=O)CCCCC#Cc1cccc2c1CN(C1CCC(=O)NC1=O)C2=O (stereo not given in full)",
    "growth (%)": 34.3
  },
  {
    "compound": "COc1ccc(-n2ncc3c4nc(OC)c(S(=O)(=O)c5ccccc5)cc4ccc32)cc1",
    "growth (%)": 88.2
  },
  {
    "compound": "O=S(=O)(OCCO)c1ccccc1",
    "growth (%)": 100
  },
  {
    "compound": "O=C(NCc1ccco1)C1CCN(S(=O)(=O)c2ccc(Cl)cc2)CC1",
    "growth (%)": 104
  },
  {
    "compound": "CSC1=CC(=O)c2ccccc2C1=O",
    "growth (%)": 97.9
  },
  {
    "compound": "Cc1c(NCC(=O)Nc2nc3ccccc3[nH]2)c(=O)n(-c2ccccc2)n1C",
    "growth (%)": 117
  },
  {
    "compound": "O=c1oc2ccccc2cc1-c1csc(N/N=C/c2cc3ccccc3nc2Cl)n1",
    "growth (%)": 116
  },
  {
    "compound": "CC(=O)Nc1ccc(Sc2ccc([N+](=O)[O-])o2)cc1",
    "growth (%)": 64.9
  }
]
